system: U251 CNS; assay: NCI tumour cell line growth inhibition, 48 h
Listed compounds paired with reported TGI

Previously resolved entries follow.
>>> df
                                   compound  measvalue
0  c1ccc2c(c1)C1CCCCCC21N1CCOCC1 (configuration not stated)   > 100 µM
1  COC(=O)[C@@H]1CC(C(C[N+](=O)[O-])c2ccc(O[Si](C)(C)C(C)(C)C)cc2)C(=O)N1C(=O)OC(C)(C)C (some centres not stated)   > 100 µM
2  COc1cc2c3c(n(C)c(=O)c2cc1OC)-c1cc2c(cc1/C3=C\CCCCN1C(=O)c3ccccc3C1=O)OCO2    25.8 µM
3  C=CCC1(OCc2ccccc2)C(=O)C(=O)OC1C1COC(C)(C)O1 (configuration not stated)   > 100 µM
4  O=C(OCc1ccc2ccccc2n1)c1cn(C2CC2)c2cc(N3CCN(Cc4ccc5ccccc5n4)CC3)c(F)cc2c1=O   > 100 µM
5  O=C(/C=C\c1cccc([N+](=O)[O-])c1)/C=C/c1cccc([N+](=O)[O-])c1    5.21 µM
6  O=C(c1ccccc1)c1ccc2nc(-c3c(Cl)c(Cl)c(Cl)c(Cl)c3C(=O)N/N=C/c3ccc(Cl)cc3)[nH]c2c1   > 100 µM
7  COc1ccc(-c2cc(-c3ccc(C)cc3)nc3nc(=S)[nH]c(N)c23)cc1    29.3 µM

Enquiry: Recorded TGI for N#C[C@H](OC1OC(COC2OC(CO)C(O)C(O)C2O)C(O)C(O)C1O)c1ccccc1 (some centres not stated) with U251 CNS, please?
Return: > 250 µM

Enquiry: Ok, now COc1ccccc1-c1cc(=O)c2cc(C)cnc2[nH]1
Return: > 100 µM

Enquiry: Lookup NCCSS(=O)(=O)CCN
Return: > 100 µM

Enquiry: Also CC1=NN(C(=O)c2ccncc2)C(=O)C1 , if possible.
Return: > 100 µM

Enquiry: What do you have for COc1cc2c(cc1C1COc3cc4occc4cc3C1=O)OCO2 (configuration not stated) ?
Return: > 100 µM

Enquiry: Same for C=CC1(NC(=O)c2ccccc2)CCC(C(C)(C)C)CC1 (configuration not stated)
Return: 53.8 µM

Enquiry: Now give it for COc1ccc2c(c1)C(=O)C1CC(=O)CCC21 (configuration not stated) too.
Return: > 100 µM

Enquiry: Thanks! And CCN1CCC(C)OP1(=O)Cc1ccccc1 (configuration not stated) ?
Return: > 100 µM
